Taken from patent US9725442B2.

biological target: CRTH2 (Homo sapiens (Human)); experiment: CRTH2 receptor binding inhibitory activity ([3H]-PGD2 displacement, membranes of CRTH2-expressing K562 cell); conditions: CRTH2 receptor binding, [3H]-PGD2 displacement, membrane of CRTH2-expressing K562 cell; categorized AAAA/AAA; read-out: Ki
Listing: Ki of selected molecules

Molecule	Ki
CCOc1ccc(S(=O)(=O)N2C[C@@H](C)[C@@H](n3nc(CC(=O)O)c4ccccc43)C2)c(C=NOC)c1	100 to 5000 nM
CC(C)Oc1ccc(S(=O)(=O)N2C[C@@H](N3CCCC3)[C@@H](n3nc(CC(=O)O)c4ccc(F)cc43)C2)cc1	< 100 nM
CC(C)Oc1ccc(S(=O)(=O)N2C[C@H](n3nc(CC(=O)O)c4ccc(F)cc43)C[C@@H]2c2ccccn2)cc1 [Compound I-358]	100 to 5000 nM
CC(C)NC(=O)[C@@H]1C[C@@H](n2nc(CC(=O)O)c3ccc(F)cc32)CN1S(=O)(=O)c1ccc(OC(C)C)cc1	100 to 5000 nM
CCOc1ccc(S(=O)(=O)N2C[C@@H](C)[C@@H](n3nc(C(F)(F)C(=O)O)c4ccccc43)C2)cc1	100 to 5000 nM
CC(C)Oc1ccc(S(=O)(=O)N2C[C@H](n3nc(CC(=O)O)c4ccccc43)C[C@@H]2C)cc1	< 100 nM

# ---- query molecule ----
Exam item: Given the entry CCOc1ccc(S(=O)(=O)N2C[C@@H](C)[C@@H](n3nc(CC(=O)O)c4ccccc43)C2)s1 , what Ki was observed with CRTH2 (Homo sapiens (Human))?
Marked response: < 100 nM

###

assay: BA test (oral absorbability); type: in vivo; settings: rat, plasma; Rats, Oral administration 1 mg/kg
Outcome measure: bioavailability

Compound	bioavailability
CCOc1ccc(S(=O)(=O)N2C[C@@H](C)[C@@H](n3nc(CC(=O)O)c4ccccc43)C2)cn1 [Compound I-96]	82%

Kindly consider the entry below.
Exam item: Reported bioavailability for CC(C)Oc1ccc(S(=O)(=O)N2C[C@@H](C)[C@@H](n3nc(CC(=O)O)c4ccc(F)cc43)C2)cc1 [Compound I-37] : what is it?
Marked response: 71%

###

target: CRTH2 (Homo sapiens (Human), UniProt Q9Y5Y4); assay: CRTH2 receptor binding inhibitory activity ([3H]-PGD2 displacement, membranes of CRTH2-expressing K562 cell); conditions: CRTH2 receptor binding, [3H]-PGD2 displacement, membrane of CRTH2-expressing K562 cell; categorized AAAA/AAA; read-out: Ki
Sequence (Q9Y5Y4 whole entry): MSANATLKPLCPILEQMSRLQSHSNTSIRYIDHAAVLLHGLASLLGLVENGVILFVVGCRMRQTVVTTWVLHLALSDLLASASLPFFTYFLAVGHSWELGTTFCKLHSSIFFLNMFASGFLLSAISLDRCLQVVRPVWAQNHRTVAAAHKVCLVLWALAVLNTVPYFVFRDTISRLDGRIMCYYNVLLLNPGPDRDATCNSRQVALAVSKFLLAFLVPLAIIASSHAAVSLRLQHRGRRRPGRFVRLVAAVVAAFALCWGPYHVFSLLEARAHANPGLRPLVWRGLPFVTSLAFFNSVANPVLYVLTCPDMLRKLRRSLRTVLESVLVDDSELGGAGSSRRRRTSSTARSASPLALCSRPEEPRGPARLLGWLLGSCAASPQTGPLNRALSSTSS
Each entry below lists one item and its recorded Ki value.

Exam item: Fill in: Ki of CC(C)Oc1ccc(S(=O)(=O)N2C[C@H](n3nc(CC(=O)O)c4ccccc43)C[C@@H]2Cc2ccccc2)cc1 is ___
Marked response: 100 to 5000 nM

###

molecular target: UniProtKB Q13258; assay: DP inhibitory activity in human platelets (PGD2-induced cAMP increase in platelet rich plasma, HTRF); settings: IC50 of PGD2 (300 nM)-induced cAMP increase, read-out: PRP
Sequence (Q13258 whole entry): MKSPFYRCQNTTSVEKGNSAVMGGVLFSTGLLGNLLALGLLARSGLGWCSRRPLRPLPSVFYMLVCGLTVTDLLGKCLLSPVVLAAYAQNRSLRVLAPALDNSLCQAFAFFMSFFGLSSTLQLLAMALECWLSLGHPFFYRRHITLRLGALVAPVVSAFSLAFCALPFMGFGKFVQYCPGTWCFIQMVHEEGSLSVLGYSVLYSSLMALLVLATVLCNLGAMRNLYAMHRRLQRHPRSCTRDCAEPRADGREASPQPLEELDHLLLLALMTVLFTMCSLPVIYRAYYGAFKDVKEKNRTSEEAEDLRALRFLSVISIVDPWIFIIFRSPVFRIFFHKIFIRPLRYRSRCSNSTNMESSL
Outcome measure: pIC50
The value called pIC50 is obtained by taking minus log10 of the concentration in mol/L.

Please review the entries below; each comes with its answer.
Compound	Subject of test	pIC50
CCOc1ccc(S(=O)(=O)N2C[C@@H](C)[C@@H](n3nc(CC(=O)O)c4c(C)cccc43)C2)cc1 [Compound I-205]	UniProtKB Q13258	7.15
CO/N=C/[C@H]1C[C@@H](n2nc(CC(=O)O)c3ccc(F)cc32)CN1S(=O)(=O)c1ccc(OC(C)C)cc1 [Compound I-19]	UniProtKB Q13258	6.59
C[C@@H]1CN(S(=O)(=O)c2ccc(OC(F)(F)F)cc2)C[C@@H]1n1nc(CC(=O)O)c2ccc(Cl)cc21 [Compound I-142]	UniProtKB Q13258	7.04
CC(C)Oc1ccc(S(=O)(=O)N2C[C@@H](C)[C@@H](n3nc(CC(=O)O)c4ccc(C(F)(F)F)cc43)C2)cc1 [Compound I-130]	UniProtKB Q13258	6.62
CCOc1ccc(S(=O)(=O)N2C[C@@H](C)[C@@H](n3nc(CC(=O)O)c4cc(C#N)ccc43)C2)cn1 [Compound I-159]	UniProtKB Q13258	7.17

Exam item: Field request: pIC50 | item: CC(C)Oc1ccc(S(=O)(=O)N2C[C@@H](C)[C@@H](n3nc(CC(=O)O)c4ccc(F)cc43)C2)cc1 [Compound I-37]
Marked response: 7.15
